System: DU-145 prostate
Test Details: NCI tumour cell line growth inhibition, 48 h
Measured Metric: TGI

Illustrative cases are given below, each with its answer.
| Molecule | Endpoint Result |
| --- | --- |
| CC1(C)C2CCC1(C)C(NC(=O)CCN1CCOCC1)C2 (stereo unspecified) | > 100 µM |
| O=C1CC(CC(O)C(O)CO)CC(=O)N1 (stereo unspecified) | > 100 µM |
| CCOC(=O)c1c2ccccc2n2c(=O)n(C)nnc12 | > 100 µM |

Consider N=c1nc(N)nc(N)n1-c1ccc(S(N)(=O)=O)cc1 . Its measured TGI is > 100 µM

Consider S=C(NNC1=NCCCCN1)Nc1ccccc1 . Its measured TGI is > 100 µM

Consider CCCCCCCCOC(=O)c1cc(O)c(O)c(O)c1 . Its measured TGI is 14 µM

###

Some compounds, each annotated with its measured GI50.
Tested on: RXF 393 renal
Test Details: NCI tumour cell line growth inhibition, 48 h

Illustrative cases are given below, each with its answer.
| Compound | Test Target | Measured Metric | Endpoint Result |
| --- | --- | --- | --- |
| COc1ccc(CNCCCN2C(=O)c3ccc4c5c(ccc(c35)C2=O)C(=O)N(CCCNCCCCNCCCN)C4=O)c(OC)c1OC | RXF 393 renal | GI50 | 1.36 µM |
| CCCCn1c(=O)c(/C=C/C(=O)/C=C/c2ccc(O)c(OC)c2)cc2ccc(Cl)cc21 | RXF 393 renal | GI50 | 1.66 µM |
| COc1cc(C(C)c2cc3c(cc2OCCOCCOc2cc4c(cc2C(C)c2cc(OC)c(OC)c(OC)c2)OCO4)OCO3)cc(OC)c1OC (configuration not stated) | RXF 393 renal | GI50 | > 100 µM |

Consider CC(=O)[CH-]C(=O)c1ccccc1.CC(=O)[CH-]C(=O)c1ccccc1.CC(C)CCCC(C)[C@H]1CCC2[C@@H]3CCC4C[C@@H]([O-])CC[C@]4(C)C3CC[C@@]21C.CC(C)CCCC(C)[C@H]1CCC2[C@@H]3CCC4C[C@@H]([O-])CC[C@]4(C)C3CC[C@@]21C.Cl.[Ti+4] (some centres not stated) . Its measured GI50 is > 25 µM

Consider CC(C)(C)OC(=O)N(CCCn1c2c(c3ccccc3c1=O)C(=O)c1ccccc1-2)CCN(CCCn1c2c(c3ccccc3c1=O)C(=O)c1ccccc1-2)C(=O)OC(C)(C)C . Its measured GI50 is 12.6 µM

Consider COc1ccc(OC)c(-c2cn3nc(-c4c[nH]c5ccc(Br)cc45)sc3n2)c1 . Its measured GI50 is 3.19 µM

Consider CC(C)NCCCNC1=C(Cl)C(=O)c2ccccc2C1=O . Its measured GI50 is 14.5 µM

###

Test system: T-47D breast
Test Details: NCI tumour cell line growth inhibition, 48 h; in the data active = GI50 below about 0.43 µM; inactive = the rest
Please reply with one of these outcomes: true for active, false for inactive

| Molecule | Test Target | Class Label |
| --- | --- | --- |
| COc1ncnc2c1ncn2C/C(Br)=C(\Br)CCl | T-47D breast | false |
| COc1cc2c(cc1OCCN1C(=O)c3cccc4cccc(c34)C1=O)N=C[C@@H]1CCCN1C2=O | T-47D breast | false |
| COc1cccc2c1C(=O)c1c(O)c3c(c(O)c1C2=O)C[C@@](O)(C(=O)COC(=O)c1cccnc1)C[C@@H]3OC1CC(N)C(O)C(C)O1 (stereo not given in full) | T-47D breast | true |
| CCN(CCc1ccc(F)cc1)c1ccc(CO)c(Cl)c1 | T-47D breast | false |
| COc1ccc(-c2ccc(=O)oc2-c2cc(OC)c(OC)c(OC)c2)cc1O | T-47D breast | false |

**Query** Recorded call for CCN(CC)CCNc1ccc(CO)c2sc3ccccc3c(=O)c12 ?
**Result** false

**Query** Recorded call for CCCCn1c(=O)c(/C=C/C(=O)/C=C/c2ccc(O)c(OC)c2)cc2ccc(Cl)cc21 ?
**Result** false

**Query** Recorded call for O=C(Oc1ccccc1Cl)c1cccnc1Nc1ccnc(C(F)(F)F)c1 ?
**Result** false

**Query** Recorded call for O=C1c2ccccc2C(=O)c2c1c(NCCNCCO)c1cc[nH]c1c2NCCNCCO ?
**Result** false

**Query** Recorded call for CC(=O)c1ccc(NCn2nc(-c3ccccc3O)oc2=S)cc1 ?
**Result** false
